# Protocol Text: soluble on expression in E. coli; label from the status in PepcDB or PDB records
Outcome Measure: soluble on expression in E. coli

MGSSHHHHHHGGTGENLYFQGGSGSFRYTNHLVATLKHRLFLEAAHRQLVRQTFTGVCNGIEVTCTAYGSVVGIRMLDRAVWEPHYQVAADNKSEAAAATPTAPAAASPSRPSSSSSSSSTASGKTGIDLVKLSASIQAATWQAIQKVRAAKEETHSRSLRRNPQVLAEARLRDWYEQDANTLHPRPFDGLKNLEATEWMQAVRFGVPQPARYRRPNAAPKDLGEGGDGAHTDQKPRETITVLRDEDCDPANIPIGSVHPLFAPGLLQLEVDPNVATNGGSRVDEFFVLSEQRKEMRRDEEAFWERVELIRRSQLATIPKGGVKRGYADMADTVQDSIEEKVQLRFTQ ... soluble
MSLAYGIRLLVWGERACFTRPEMKVERVSYDVITPSAARGILEAIHWKPAICWVVDRIHVLKPIRFESIRRNEVGGKLSAASVGKAMKAGRTDGLIALADEDRQQRAATVLRDVSYVIEAHFELTARADASDSEGKHLDIFNRRARKGQYFHAPCLGVREFPASFELIEPDDVLPAVPADLRGERELGWMLHDIDFANDMTPHFFRAVMRDGVIEVPALRSEGVKAEGHHHHHH ... soluble

###

# Protocol Text: soluble on expression in E. coli; label from the status in PepcDB or PDB records
Outcome Measure: soluble on expression in E. coli

MQSTIRKQLLQVFSEADGEFVSGQTISDKLGCSRTAVWKHMEDLRNEGYELEAVRRLGYRIASKPDKVTANEIQLGLQTKHIGRTVYFEESVESTQHIAAKLAYEGAEEGTIVVAEEQTAGRGRLSRKWHSPKGTGIWMSIILRPSIPVHHAPQLTLLAAVSVAQAIEKCTGVNVGIKWPNDILIQGKKAVGILTEMQADPDKINAVIMGIGINANQKQEHFDEEIQHIATSLAIESGKPIVRAELMQQIFLQLEKLYEEYLQNGFSVIKILWESYAVSIGKEINARTMRETITGVAKGITEDGVLLLEDHEGKVHHIHSADIEIK ... not soluble
MGSDKIHHHHHHMKLICSKANLLKGVNIVSKAVPTRTTMAILECILIDASANEIKLMANDMELGIETIIDGTIEERGIIALDAKIFSEIVRKLPDNDVTIETDASFKTVISCEKAKFNIIGKSGDDFSYIPYVERNESIVLSQFTLKEVIRQTIFSIADNDNNKLMTGELFEIEENKLRVVSLDGHRISIRYIEMKNHYDSKKVVVPGKTLQEISKIIPGSADEDVVIYITNNHIVFEFENTTVVSRLIEGEYFKIDQMLSSDYDTKVRINKRELLDCIDRATLLVKEGDKKPIIMNITDGNMELRINSFIGSMNEDIDIDKDGKDIMIGFNPKFFIDALRVIDEEEVNLYMVNPKAPCFIKDDEGKFIYLILPVNFNTAAN ... not soluble

###

# Protocol Text: soluble on expression in E. coli; label from the status in PepcDB or PDB records
Outcome Measure: soluble on expression in E. coli

# count of solved cases: 4
MDRVALKPFRRIAVILLAGAVIATSTSCSRDERKKEEEKHLESMMSILVQVQKNLGRIRQKEAVVVRLSSDVEGRKPKSAEQIGREINTNIRFIDSTLSASKNLVATLEKQNHESQYRIAALDRMTGQLKGELDKKELELGAMKREIAKLNRQIARLTNTVDVMDEAISDQEDQMVKAYYVVGTVDQLVSKGILVPPGPFSRFFGMRPVLANDFDLRPFRQVDITETKDIYFDKPVSRLHVITPHTKGSYELVGGKTSSLLLIRNEAEFWKKSRCLVIVVE ... not soluble
MRKIIVGAFVSLDGIMQAPGGPHEDPVGGFDHGGWAAPYFDETMGQAVDEMFSKPFDLLLGRKTYDIFAAHWPYAGPDDPIGPLFDRITKYVATRNPDLRLDWQNSRTLGSDPVAMLKKLKSEEGPDLLTQGSTDFLQTLFSNDLVDEMYISYFPVVLGKGKRLFGHGAMPMAMKLLGSKVSGTGVTANKYVRSGPVVTGSFEFEQPTEAELERRRKLS ... soluble
MMPRMGPPAAARQDNPLHVSFRNPQWPPNFINKDNVLDYFCNQANAFYEMNSCNQQIRMQNIVNRTVEECLRTMPGIQYVLWYSQPPLFIICKQRRNNVTNVSPIAYYYVINGSVHQAPDMYSLVQSRLLGALEPLRNAFGEVTNYSRYNTAKGYYWEFKNKPNVKKREEEKKEDEEEKLEDRSTNFQKTRTMMLLNQLFSEMPAEDALEREEKEEVEEEEEETLKTEEPTTSTDEPKFAEPTARTTSKQ ... not soluble
MAHHHHHHMAAPSHQHSLVLERSTCHHYYHCVLYDILFDLPVREIAAQVVPCKDSNIVQRLTSADCRVVPHQLHVYKEPLEKKFGYVSFFVHRAPHSSTAADDVHRLVCEWVAVDLASQLATVQCKVQLAQPPECHSSEPFLNAFRLKCPLLDPTLAADTKKLETFVLTRVRFGQHCGNASVNQLNAVHCDDAKSAASAGSCGTETEMCTDDGLTATEGELDAGARSATRTLDEHVWKCVGTFLIASLSPKELVWLKKQLPSFPPLRIANGDMDTAYCDEAKLAQFFETSLAPLFTVDEVVEAAALNTVNSEA ... not soluble

I have this sequence here, "MSLCRRRLATWLLDGSQPPTLLLPEQEGINGIRFPIWLDENGKRVAADCPQARQEMINVWPLPLEPWLPASERRAVRLPPASTSCPPYGHDAQLPLQLTGVRDGAIIKRLPGAAEATLPLQSSGGAGERWWFLNGEPLTERGRNVTLHLTDKGDYQLLVMDDVGQIATVKFVMQEGHHHHHH" , and I need its recorded soluble on expression in E. coli.
soluble

I have this sequence here, "MSLKIWITKNHKSKDDWSRSKKFIIIKITTHDGVEGWGEAFSIHLREKAIATIIIELFKEISKIKNLSINSLYNKISLLSDNHKGLDFSAATSAIEIAAWDIAGKLKNLPLNCLLTDNPKPDVSIYVTCWSDLRKDEEDYLDQVEKYFEKKYGGIKIYPLFENTSNSIKFVDRVRKIVGMEYPLMLDLAIPKDLDQTKTFLKEVSFLKPYWIEEPVDGENISLLTEIKNSFDMKVVTGEKQSGLPHFKEIIKRDAADILNPDISGIGGIIDMLYVSKEALNNDISISPHCWNSMSVSASAMLHVCSSIPNSEKAEIFPDYIEFTKEFCELPFNIVEDKAILNQSAGLGIVIHEDTLSNLSTYRMDEKNEGHHHHHH" , and I need its recorded soluble on expression in E. coli.
soluble

These measurements were taken from the DeepSol protein solubility set.
